The molecules listed here are annotated with their IC50.
# MEASUREMENT TARGET: KDR (Homo sapiens, UniProt P35968)
# Sequence (P35968 20-1356): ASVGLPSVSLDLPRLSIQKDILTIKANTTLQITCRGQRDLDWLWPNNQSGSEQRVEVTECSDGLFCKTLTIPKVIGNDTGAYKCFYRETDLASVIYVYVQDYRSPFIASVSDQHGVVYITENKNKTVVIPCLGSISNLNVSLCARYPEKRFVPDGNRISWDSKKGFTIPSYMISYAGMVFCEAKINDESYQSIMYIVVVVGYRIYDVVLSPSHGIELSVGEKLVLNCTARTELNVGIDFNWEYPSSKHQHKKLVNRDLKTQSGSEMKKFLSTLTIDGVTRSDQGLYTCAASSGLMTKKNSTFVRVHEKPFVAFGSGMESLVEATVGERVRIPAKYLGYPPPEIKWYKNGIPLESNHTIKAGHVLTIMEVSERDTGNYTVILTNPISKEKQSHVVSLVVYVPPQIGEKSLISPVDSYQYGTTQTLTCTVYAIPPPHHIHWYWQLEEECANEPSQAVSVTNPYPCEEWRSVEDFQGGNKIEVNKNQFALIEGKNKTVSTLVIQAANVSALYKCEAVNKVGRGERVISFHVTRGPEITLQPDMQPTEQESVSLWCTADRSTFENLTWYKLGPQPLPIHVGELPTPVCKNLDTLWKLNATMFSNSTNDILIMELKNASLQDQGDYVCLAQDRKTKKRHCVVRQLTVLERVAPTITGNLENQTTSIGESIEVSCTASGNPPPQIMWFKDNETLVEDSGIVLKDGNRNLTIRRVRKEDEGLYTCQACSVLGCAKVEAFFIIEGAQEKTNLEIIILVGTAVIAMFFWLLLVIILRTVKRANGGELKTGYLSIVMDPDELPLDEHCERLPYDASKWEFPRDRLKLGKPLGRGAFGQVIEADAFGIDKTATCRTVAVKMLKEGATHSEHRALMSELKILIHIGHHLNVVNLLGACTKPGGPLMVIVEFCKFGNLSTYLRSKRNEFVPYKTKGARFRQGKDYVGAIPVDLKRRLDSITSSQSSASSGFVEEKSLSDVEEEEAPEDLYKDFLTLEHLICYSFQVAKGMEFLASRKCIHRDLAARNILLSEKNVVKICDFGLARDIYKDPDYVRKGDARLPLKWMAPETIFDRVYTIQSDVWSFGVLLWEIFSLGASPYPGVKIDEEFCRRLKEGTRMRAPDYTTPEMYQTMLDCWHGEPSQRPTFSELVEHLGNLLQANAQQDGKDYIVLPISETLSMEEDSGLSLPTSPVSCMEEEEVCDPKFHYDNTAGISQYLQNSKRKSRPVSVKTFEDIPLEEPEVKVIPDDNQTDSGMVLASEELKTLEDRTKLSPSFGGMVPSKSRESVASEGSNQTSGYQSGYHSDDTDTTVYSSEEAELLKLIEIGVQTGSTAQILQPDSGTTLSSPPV
# ASSAY EXPLANATION: KDR autophosphorylation ELISA in HUVEC cells
# Format: cell-based
# Set-up: endogenous in cells; host or cells: HUVEC (Lonza #C2519A)
# CONDITIONS USED: Table 3 Cellular Activities, VEGF165-stimulated, phospho-KDR ELISA

Worked examples, 3 molecules total:
> print(dat)
                                   molecule  endpoint.name  reported.measurement
1  COc1cc2nccc(Oc3ccc(NC(=O)c4c(C)ncc(-c5ccoc5)c4O)cc3F)c2nc1OC [Compound 122]           IC50              ≤ 100 nM
2  COc1cc2nccc(Oc3ccc(NC(=O)c4cnc(C)c(-c5ccc(F)cn5)c4O)cc3F)c2nc1OC [Compound 85]           IC50              ≤ 100 nM
3  Cc1ccc(C(=O)Nc2ccc(Oc3ccnc4cccnc34)c(F)c2)c(=O)n1-c1ccc(F)cn1 [Compound 48]           IC50        300 to 1000 nM

Exercise: Return IC50 (reported value) for this molecule: COc1cnc2c(Oc3ccc(NC(=O)c4c(C)nc(C)c(-c5ccc(F)cn5)c4O)cc3F)ccnc2c1 [Compound 217]
Solution: ≤ 100 nM

Exercise: Return IC50 (reported value) for this molecule: COc1cc2nccc(Oc3ccc(NC(=O)c4c(C)ncc(-c5cccs5)c4O)cc3F)c2nc1OC [Compound 123]
Solution: ≤ 100 nM

Exercise: Return IC50 (reported value) for this molecule: COc1cc2nccc(Oc3ccc(NC(=O)c4c5n(cc(-c6cc(C)cs6)c4=O)CCOC5)cc3)c2nc1OC [Compound 303]
Solution: 300 to 1000 nM

Exercise: Return IC50 (reported value) for this molecule: COc1cc2nccc(Oc3ccc(NC(=O)c4c(C)ncc(-c5cc(C)cs5)c4O)cc3F)c2nc1OC [Compound 125]
Solution: ≤ 100 nM

Exercise: Return IC50 (reported value) for this molecule: COc1cc2nccc(Oc3ccc(NC(=O)c4cc(C#N)c(C)n(-c5ccc(F)cn5)c4=O)cc3F)c2nc1OC [Compound 56]
Solution: 300 to 1000 nM

Exercise: Return IC50 (reported value) for this molecule: COc1cc2nccc(Oc3ccc(NC(=O)c4c(C)ncc(-c5ccsc5)c4O)cc3F)c2nc1OC [Compound 127]
Solution: ≤ 100 nM

Exercise: Return IC50 (reported value) for this molecule: COc1cc2nccc(Oc3ccc(NC(=O)c4cnc(C)c(-c5cc(C(F)(F)F)nn5C)c4O)cc3F)c2nc1OC [Compound 105]
Solution: ≤ 100 nM

Exercise: Return IC50 (reported value) for this molecule: COc1cc2nccc(Oc3ccc(NC(=O)c4c(C)cc(C)n(-c5ccc(F)cn5)c4=O)cc3)c2nc1OC [Compound 245]
Solution: ≤ 100 nM

Exercise: Return IC50 (reported value) for this molecule: COc1cc2nccc(Oc3ccc(NC(=O)c4c(C)nc(C)c(-c5sccc5C)c4O)cc3F)c2nc1OC [Compound 139]
Solution: ≤ 100 nM

Exercise: Return IC50 (reported value) for this molecule: COc1cc2nccc(Oc3ccc(NC(=O)c4c(C)nc(C)c(-c5ccsc5)c4O)cc3F)c2nc1OC [Compound 106]
Solution: ≤ 100 nM

Exercise: Return IC50 (reported value) for this molecule: COc1cc2nccc(Oc3ccc(NC(=O)c4cnc(C)c(-c5nccs5)c4O)cc3F)c2nc1OC [Compound 143]
Solution: ≤ 100 nM

Exercise: Return IC50 (reported value) for this molecule: COc1cc2nccc(Oc3ccc(NC(=O)c4c(C)ncc(-c5ccco5)c4O)cc3F)c2nc1OC [Compound 119]
Solution: ≤ 100 nM
